test system: MS2 coat protein; assay: apparent KD of MS2 coat protein; designed switch direction (-1 OFF switch, 1 ON switch): 1; higher = weaker reporter binding; settings: input ligand: none
Classify by measured apparent KD of MS2 coat protein: yes (1) if it is equal to or exceeds 300 nM, no (0) if it is smaller.

# seq-text, class-label
rows = [
    ("ACUCUCACAGUAGGAUAUGUAGGAUAUGCCUACAUGAGGAUCACCCAUGUAAACAUGGCAGAAGGAUAGAAGGACUGACAUGGG [pwkr ssNG2 2FMN + 1F5.3] (Eterna round: R96, puzzle: Same State NG 2)", "no (0)"),
]

Challenge: Evaluate GCUCGACGUAUUGUUUACAUGAGGAUCACCCAUGUAGGUGCGGAGGAUAUCUACGUGUUUCAUGUAGAGAAGGUCGUGUCGAGC [SameState NG3 #91] (Eterna round: R96, puzzle: Same State NG 3) : apparent KD of MS2 coat protein at minimum 300 nM?
Response given: no (0)

Challenge: Evaluate GCUCGACUGAUGGCCUACAUGAGGAUCACCCAUGUGACUGGGCAGGAUAUCUAGAUGCAGGAUGUAGAGAAGGGCCUGUCGAGC [SameState NG3 #43] (Eterna round: R96, puzzle: Same State NG 3) : apparent KD of MS2 coat protein at minimum 300 nM?
Response given: yes (1)

Challenge: Evaluate GCUCGAAUCAGAACCAACAUGAGGAUCACCCAUGUGUGUUGGUAGGAUAUCGUUUCUAAGGGAAACGAGAAGGGCCGAACGAGC [SameState NG3 #7] (Eterna round: R96, puzzle: Same State NG 3) : apparent KD of MS2 coat protein at minimum 300 nM?
Response given: no (0)

Challenge: Evaluate GGUCCAUCAUGAGGAUAUGGCACCUUAUUGGUGCCAGAAGGCAUGUAAAUUAUAAUAAAUACAUGAGGAUCACCCAUGUGGACC [Eli NG1ss - 98] (Eterna round: R96, puzzle: Same State NG 1) : apparent KD of MS2 coat protein at minimum 300 nM?
Response given: yes (1)

* * *

Measured apparent KD of MS2 coat protein of individual entries
system: MS2 coat protein; experiment: apparent KD of MS2 coat protein, switch ON state; designed switch direction (-1 OFF switch, 1 ON switch): -1; higher = weaker reporter binding; conditions: FMN input: 0 or 200 uM; Eterna round: R93 (includes R88 designs)
Please reply with the bare figure in nM and do not write the unit itself.

# seq-text, assayed-system, measurement-units, measured-value
records = [
    ("CUCUUGUCAGGAUAUCGAUGAAUAAUAAAACAGAGGAACAUUGAGAAGGGACAUGAGGAUCACCCAUGUAAAAC [May 83]", "MS2 coat protein", "nM", 73.1),
    ("AGAAAGUGAGGAUAUCGAAGACUGUCGAAAAGACAGUCGAACGAGAAGGCACAUGAGGAUCACCCAUGUGAGGG [Mat - Exaclusion 4 - Eli mod - D67]", "MS2 coat protein", "nM", 76.3),
]

Challenge: # get_value(readout='apparent KD of MS2 coat protein', item= AAAAAGCGAGGAUAUACAUGAGGAUCACCCAUGUGAAAAAAAAAAAAAAAAAAAAAAAGUAGAAGGCGCAAAAA [GC super strong! + G boost] )
Response given: 46.4

Challenge: # get_value(readout='apparent KD of MS2 coat protein', item= CUCUUGUCAGGAUAUAGAAGAAAAGAAGAGAAAGAAAAGAACUAGAAGGGACAUGAGGAUCACCCAUGUAAGAA [EteRNA is fun!] )
Response given: 48.7

Challenge: # get_value(readout='apparent KD of MS2 coat protein', item= UCCACACAUGAGGAUCACCCAUGUGAGGAUAUCUAGAAAACCUCAUGUAAAAAAAUCUAGAGAAGGCACAUGAA [Design 92: Pseudoknot B] )
Response given: 24

Challenge: # get_value(readout='apparent KD of MS2 coat protein', item= AUAGUACAUGAGGAUCACCCAUGUCAGGAUAUUCGAUAUGAAAAAAAAAAAAAGUUAAGGAGAAGGGACUAUAA [EX1 Malc#13] )
Response given: 26.1

Challenge: # get_value(readout='apparent KD of MS2 coat protein', item= AAGGGACAUGAGGAUCACCCAUGUGAGGAUAUGCUAUGGAAAAUAAAAAUAAAACAUAGCAGAAGGCAUAAAAA [Denovo 9] )
Response given: 60.1

Challenge: # get_value(readout='apparent KD of MS2 coat protein', item= AACUAGCUAGGAUAUACAUGAGGAUCACCCAUGUAAAAAAAAAAAAAAAGAUAUAUAUGUAGAAGGAGCUAGUA [Mod of Brourd] )
Response given: 30.5

Challenge: # get_value(readout='apparent KD of MS2 coat protein', item= AAAAAACAUGAGGAUCACCCAUGUCAGGAUAUCCGGUUCUUAAAAAAAAAAAGGCGUUGGAGAAGGGACAUUCC [Chica Displaced 11 - Jieux - Exclusion 1] )
Response given: 28.9

Challenge: # get_value(readout='apparent KD of MS2 coat protein', item= AACAUGUGAGGAUAUGUACGAAAAAAUAAAAAAAUAAAAGUACAGAAGGCACAUGAGGAUCACCCAUGUGAAAA [EX4 395: Minimal 8] )
Response given: 176

Challenge: # get_value(readout='apparent KD of MS2 coat protein', item= CUCUUGUGAGGAUAUGUAAGAAAAGAAGAGAAAGAAAAGAAACAGAAGGCACAUGAGGAUCACCCAUGUAAGAA [EteRNA is fun!] )
Response given: 52.8

Challenge: # get_value(readout='apparent KD of MS2 coat protein', item= AAAAAGCGAGGAUAUACAUAGCUAAGACAAAUAAGCAAAAAACAUGAGGAUCACCCAUGUAGAAGGCGCAAAAA [Exclusion2-01] )
Response given: 19.6

Challenge: # get_value(readout='apparent KD of MS2 coat protein', item= AAAAAAUCAGGAUAUACAUGAGGAUCACCCAUGUGAAAGAACGAUUAACGACCAGCAAGUAGAAGGGAUAAAAA [Ruby 81] )
Response given: 18.1

* * *

test system: MS2 coat protein; test: apparent KD of MS2 coat protein; designed switch direction (-1 OFF switch, 1 ON switch): -1; higher = weaker reporter binding; settings: Eterna round: R95; input ligand: microRNA oligo, concentration not stated
quantity-measured: apparent KD of MS2 coat protein (nM)
Please reply with the bare figure in nM and do not write the unit itself.

Answered cases to consult:
# seq-text, quantity-measured, measurement-units, measured-value
data = [
    ("AGAAGUAGAAACCGAUCCUACAUGAGGAUCACCCAUGUAGCAAGACGUGCACGCGAAGCUCGUCAGACUACCAGAUG [salish99_TOv1_r3_017] (puzzle: Sensor v3, turn-off variant 1)", "apparent KD of MS2 coat protein", "nM", 108),
    ("GACGUGUGAGGAUAUGCCGUGCCGGUCCGGAAGGUUCGGGUGCAGAAGGCACAUGAGGAUCACCCAUGUGUAAG [Excls4-VI] (puzzle: Exclusion 4)", "apparent KD of MS2 coat protein", "nM", 17.7),
    ("GCCAGAGCAGGAUAUUGAAUAAUUCACAUGAGGAUCACCCAUGUCCAGCGAAAGCUGGAACGAGAAGGGCUCUGGC [Fiskers Ex 5 - 5] (puzzle: Exclusion 5)", "apparent KD of MS2 coat protein", "nM", 11.7),
    ("UGUACGAUGCGUGCUGACAUGCGUCGUGCAGCAGGUGAUACAUGAGGAUCACCCAUGUCCUCAUUUGCUCGUCUUGU [SL-sv3-2.11 JL mod] (puzzle: Sensor v3, turn-off variant 2)", "apparent KD of MS2 coat protein", "nM", 267),
]

Now consider the entry below.
Challenge: # get_value(readout='apparent KD of MS2 coat protein', item= UUUAUAAUUUCAAUCUUCGCUGGCGAACUUACGCCAGCCACAUGAGGAUCACCCAUGUUUUUUGUUCGUUUUAUUCU [Gelaoren] (puzzle: Sensor v3, turn-off variant 2) )
Response given: 66.6

* * *

tested on: MS2 coat protein; test: apparent KD of MS2 coat protein; designed switch direction (-1 OFF switch, 1 ON switch): -1; higher = weaker reporter binding; conditions: input ligand: none
Measured apparent KD of MS2 coat protein of individual entries
Please reply with the bare figure in nM and do not write the unit itself.

Answered cases to consult:
# seq-text, apparent KD of MS2 coat protein / nM
data = [
    ("UUGUUGUGUGUAGGAUAUGCGUAUUAUUAUUAUGCAGAAGGACAUGAGGAUCACCCAUGUGUAUUAUUAUUAUAUAUUAUAUAU [Title] (Eterna round: R96, puzzle: Exclusion NG 1)", 25),
    ("GCCCGGCCUGUAGGAUAUGGUUCCGUUUCGGUUCCAGAAGGACACGAGGAUACAUGAGGAUCACCCAUGUGCUCGUCACCGGGC [salish99_ExNG1_r04_403] (Eterna round: R96, puzzle: Exclusion NG 1)", 11.3),
]

Now consider the entry below.
Challenge: # get_value(readout='apparent KD of MS2 coat protein', item= GUACAUAUAGGAUAUACAUGAGGAUCACCCAUGUAAAUCGUUAGUUGGGAUUCUAAAAGUAGAAGGGUGGUGCG [Eternabot (L2) Solution 30] (Eterna round: R97, puzzle: Exclusion 3) )
Response given: 27.4
